System: PglD UDP-4-amino-sugar N-acetyltransferase (Campylobacter jejuni)
Experiment: PglD acetyltransferase inhibitors, confirmation, biochemical, DTNB absorbance, single point, cherry-picked samples (AID 743156);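 note: initial rate of CoA release by acetyl transfer from AcCoA to the UDP-4-amino sugar; 0% = median of neutral control wells and 100% = median of positive control wells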
Conditions: Purified C. jejuni PglD, DTNB absorbance 412 nm; at 20 µM; active compounds read high
The list shows a part of the results.
experimentalReadout: inhibition (%)

structureSmilesString: O=C(NCc1ccncc1)C1CCN(C(=O)c2cccc(Cl)c2)CC1
experimentalReadout: inhibition
quantitativeReadout: 2.21
--
structureSmilesString: CC(C)(C)c1ccc(CN2C(=O)c3ccccc3S2(=O)=O)cc1
experimentalReadout: inhibition
quantitativeReadout: 2.98
--
structureSmilesString: COc1ccc(NC(=O)C2=NNC(=O)CC2)cc1S(=O)(=O)N1CCCCC1
experimentalReadout: inhibition
quantitativeReadout: -3.63
--
structureSmilesString: CSc1ccc(S(=O)(=O)NCc2ccc(Cl)cc2)cc1
experimentalReadout: inhibition
quantitativeReadout: 3.66

----------
Reported inhibition values are given for each entry in this list.
System: PglD UDP-4-amino-sugar N-acetyltransferase (Campylobacter jejuni)
Test: PglD acetyltransferase inhibitors, confirmation, biochemical, DTNB absorbance, single point, cherry-picked samples (AID 743156);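 note: initial rate of CoA release by acetyl transfer from AcCoA to the UDP-4-amino sugar; 0% = median of neutral control wells and 100% = median of positive control wells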
Conditions: Purified C. jejuni PglD, DTNB absorbance 412 nm; at 20 µM; active compounds read high
This is one part of the list.
experimentalReadout: inhibition (%)

molecule: O=S1(=O)CC(NCc2ccccc2)C(Nc2ccc(Cl)cc2)C1 (stereo unspecified)
quantitativeReadout: -7.57
--
molecule: C=CCOC(=O)C1=C(C)NC(SCC(=O)OCC)=C(C#N)C1c1ccc(C)cc1 (stereo unspecified)
quantitativeReadout: 0.793
--
molecule: O=C(Nc1ccc(Sc2ccc(Br)cc2)cc1)c1ccco1
quantitativeReadout: 11.2
--
molecule: CC(C)CCNC(=O)c1ccc2c(Cl)c3c(nc2c1)CCC3
quantitativeReadout: 2.89
--
molecule: CC(NC(=O)c1ccc(Cl)cc1)C(=O)N1CCCCC1 (stereo unspecified)
quantitativeReadout: 0.85
--
molecule: CCOc1ccc(OCc2ccc(C(=O)N(C)c3ccccc3)o2)cc1
quantitativeReadout: 1.37

FYI, the data here is from PubChem BioAssay AID743156.
